Tested on: 422866-222-R5-J1-PDC spheroid viability
assay_notes: Anticancer human tumor 422866-222-R5-J1-PDC patient-derived pancreatic adenocarcinoma cell line growth inhibition [CLK]
test_conditions: curve of first compound; second compound 3.16 µM; spheroids with HUVEC and MSC
pIC50: −log10 of the molar value.
reported_endpoint: pIC50

// known answers, use as guide
# compound, target_desc, pIC50
records = [
    ("CC1(C)CCC(CN2CCN(c3ccc(C(=O)NS(=O)(=O)c4ccc(NCC5CCOCC5)c([N+](=O)[O-])c4)c(Oc4cnc5[nH]ccc5c4)c3)CC2)=C(c2ccc(Cl)cc2)C1 + CNC(=O)c1ccc(Nc2nc(OC3CCCC3)c3c(-c4ccc5nc(C)oc5c4)c[nH]c3n2)c(OC)c1", "422866-222-R5-J1-PDC spheroid viability", "< 5.00"),
    ("CC(C)CC(NC(=O)C(Cc1ccccc1)NC(=O)c1cnccn1)B(O)O (stereo not drawn) + CN1CCN(c2cc(C(=O)Nc3cc4cc(-c5cnn(C)c5)ccc4cn3)ccn2)CC1", "422866-222-R5-J1-PDC spheroid viability", "> 9.02"),
]

From here, focus on the item given below.
Data point: Nc1ccn(C2OC(CO)C(O)C2(F)F)c(=O)n1 (stereo not drawn) + CN1CCN(c2cc(C(=O)Nc3cc4cc(-c5cnn(C)c5)ccc4cn3)ccn2)CC1 ; pIC50 = > 7.50

###

Test system: 422866-222-R5-J1-PDC spheroid viability
assay_notes: Anticancer human tumor 422866-222-R5-J1-PDC cell line growth inhibition [CLK];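 also: spheroids exposed to agents for seven days before readout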
test_conditions: second compound 0.0316 µM; first compound 0.316 µM; stronger effect = lower value; spheroids with HUVEC and MSC
Task for the reader: assign each of the following compounds its reported viability, T/C.
Numbers only, in %.

# compound, target_desc, viability, T/C [%]
data = [
    ("O=c1[nH]cc(F)c(=O)[nH]1 + CNC(=O)c1ccc(Nc2nc(OC3CCCC3)c3c(-c4ccc5nc(C)oc5c4)c[nH]c3n2)c(OC)c1", "422866-222-R5-J1-PDC spheroid viability", 89.9),
]

Batch lookup, viability, T/C per entry.
1. C=CC(=O)N1CCN(c2nc(=O)n(-c3c(C)ccnc3C(C)C)c3nc(-c4c(O)cccc4F)c(F)cc23)C(C)C1 (centres undefined) + CNC(=O)c1ccc(Nc2nc(OC3CCCC3)c3c(-c4ccc5nc(C)oc5c4)c[nH]c3n2)c(OC)c1
2. CC(=O)O[C@H]1C(=O)[C@@]2(C)[C@H]([C@H](OC(=O)c3ccccc3)[C@]3(O)C[C@H](OC(=O)[C@H](O)[C@@H](NC(=O)c4ccccc4)c4ccccc4)C(C)=C1C3(C)C)[C@]1(OC(C)=O)CO[C@@H]1C[C@@H]2O + CNC(=O)c1ccc(Nc2nc(OC3CCCC3)c3c(-c4ccc5nc(C)oc5c4)c[nH]c3n2)c(OC)c1

[A]
[29.5, 65.3]

Data point: C#Cc1c(F)ccc2cc(O)cc(-c3ncc4c(N5CC6CCC(C5)N6)nc(OCC56CCCN5CC(F)C6)nc4c3F)c12 (centres undefined) + CN1CCN(c2cc(C(=O)Nc3cc4cc(-c5cnn(C)c5)ccc4cn3)ccn2)CC1 ; viability, T/C = 70.7

###

Tested on: 422866-222-R5-J1-PDC spheroid viability
assay_notes: Anticancer human tumor 422866-222-R5-J1-PDC cell line growth inhibition [CLK];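 also: spheroids exposed to agents for seven days before readout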
test_conditions: curve of first compound; second compound 10 µM; spheroids with HUVEC and MSC
pIC50: −log10 of the molar value.
Task for the reader: assign each of the following molecules its reported pIC50.

// known answers, use as guide
# molecule, target_desc, reported_endpoint, measured_result
data = [
    ("Nc1ccccc1NC(=O)c1ccc(CNC(=O)OCc2cccnc2)cc1 + CN1CCN(c2cc(C(=O)Nc3cc4cc(-c5cnn(C)c5)ccc4cn3)ccn2)CC1", "422866-222-R5-J1-PDC spheroid viability", "pIC50", "> 7.50"),
    ("NC(=O)C(=Cn1cnc(-c2cc(C(F)(F)F)cc(C(F)(F)F)c2)n1)c1cncnc1 + CNC(=O)c1ccc(Nc2nc(OC3CCCC3)c3c(-c4ccc5nc(C)oc5c4)c[nH]c3n2)c(OC)c1", "422866-222-R5-J1-PDC spheroid viability", "pIC50", 7.26),
]

Data point: C=C(F)C(=O)N1CCN(c2nc(OCC3CCCN3C)nc3c2CCN(c2cccc4cccc(Cl)c24)C3)CC1CC#N (stereo not drawn) + CNC(=O)c1ccc(Nc2nc(OC3CCCC3)c3c(-c4ccc5nc(C)oc5c4)c[nH]c3n2)c(OC)c1 ; pIC50 = > 7.50

###

Tested on: 422866-222-R5-J1-PDC spheroid viability
assay_notes: Anticancer human tumor 422866-222-R5-J1-PDC cell line growth inhibition [CLK];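 also: spheroids exposed to agents for seven days before readout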
test_conditions: second compound 1 µM; first compound 10 µM; stronger effect = lower value; spheroids with HUVEC and MSC
Note to self: viability, T/C under 30% means t, ties and anything higher get f.

Please review the following examples before continuing.
# molecule, target_desc, class_name
measured = [
    ("CC(CO)NC(=O)c1cc(-c2ccc(Cl)cc2)nn(-c2cnn(C)c2)c1=O (centres undefined) + CNC(=O)c1ccc(Nc2nc(OC3CCCC3)c3c(-c4ccc5nc(C)oc5c4)c[nH]c3n2)c(OC)c1", "422866-222-R5-J1-PDC spheroid viability", "f"),
    ("Nc1ccn(C2OC(CO)C(O)C2(F)F)c(=O)n1 (centres undefined) + CNC(=O)c1ccc(Nc2nc(OC3CCCC3)c3c(-c4ccc5nc(C)oc5c4)c[nH]c3n2)c(OC)c1", "422866-222-R5-J1-PDC spheroid viability", "f"),
    ("COC1C=CCC(C)C(C)S(=O)(=O)NC(=O)c2ccc3c(c2)N(CC2CCC21)CC1(CCCc2cc(Cl)ccc21)CO3 (centres undefined) + CNC(=O)c1ccc(Nc2nc(OC3CCCC3)c3c(-c4ccc5nc(C)oc5c4)c[nH]c3n2)c(OC)c1", "422866-222-R5-J1-PDC spheroid viability", "f"),
    ("Nc1ccccc1NC(=O)c1ccc(CNC(=O)OCc2cccnc2)cc1 + CN1CCN(c2cc(C(=O)Nc3cc4cc(-c5cnn(C)c5)ccc4cn3)ccn2)CC1", "422866-222-R5-J1-PDC spheroid viability", "t"),
]

[Q] Report whether reported viability, T/C is lower than 30% (strictly) for O=C(c1cc(Cc2n[nH]c(=O)c3ccccc23)ccc1F)N1CCN(C(=O)C2CC2)CC1 + CN1CCN(c2cc(C(=O)Nc3cc4cc(-c5cnn(C)c5)ccc4cn3)ccn2)CC1
[A] t

[Q] Report whether reported viability, T/C is lower than 30% (strictly) for C#Cc1c(F)ccc2cc(O)cc(-c3ncc4c(N5CC6CCC(C5)N6)nc(OCC56CCCN5CC(F)C6)nc4c3F)c12 (centres undefined) + CNC(=O)c1ccc(Nc2nc(OC3CCCC3)c3c(-c4ccc5nc(C)oc5c4)c[nH]c3n2)c(OC)c1
[A] t

[Q] Report whether reported viability, T/C is lower than 30% (strictly) for CC(Nc1ccc2c(c1)OCCn1cc(N3C(=O)OCC3C(F)F)nc1-2)C(N)=O (centres undefined) + CN1CCN(c2cc(C(=O)Nc3cc4cc(-c5cnn(C)c5)ccc4cn3)ccn2)CC1
[A] t

[Q] Report whether reported viability, T/C is lower than 30% (strictly) for CCCS(=O)(=O)Nc1ccc(F)c(C(=O)c2c[nH]c3ncc(-c4ccc(Cl)cc4)cc23)c1F + CNC(=O)c1ccc(Nc2nc(OC3CCCC3)c3c(-c4ccc5nc(C)oc5c4)c[nH]c3n2)c(OC)c1
[A] f

[Q] Report whether reported viability, T/C is lower than 30% (strictly) for C=C(F)C(=O)N1CCN(c2nc(OCC3CCCN3C)nc3c2CCN(c2cccc4cccc(Cl)c24)C3)CC1CC#N (centres undefined) + CN1CCN(c2cc(C(=O)Nc3cc4cc(-c5cnn(C)c5)ccc4cn3)ccn2)CC1
[A] t

[Q] Report whether reported viability, T/C is lower than 30% (strictly) for CCCS(=O)(=O)Nc1ccc(F)c(C(=O)c2c[nH]c3ncc(-c4ccc(Cl)cc4)cc23)c1F + CN1CCN(c2cc(C(=O)Nc3cc4cc(-c5cnn(C)c5)ccc4cn3)ccn2)CC1
[A] t

[Q] Report whether reported viability, T/C is lower than 30% (strictly) for O=C(c1cc(Cc2n[nH]c(=O)c3ccccc23)ccc1F)N1CCN(C(=O)C2CC2)CC1 + CNC(=O)c1ccc(Nc2nc(OC3CCCC3)c3c(-c4ccc5nc(C)oc5c4)c[nH]c3n2)c(OC)c1
[A] f

[Q] Report whether reported viability, T/C is lower than 30% (strictly) for CC(=O)O[C@H]1C(=O)[C@@]2(C)[C@H]([C@H](OC(=O)c3ccccc3)[C@]3(O)C[C@H](OC(=O)[C@H](O)[C@@H](NC(=O)c4ccccc4)c4ccccc4)C(C)=C1C3(C)C)[C@]1(OC(C)=O)CO[C@@H]1C[C@@H]2O + CNC(=O)c1ccc(Nc2nc(OC3CCCC3)c3c(-c4ccc5nc(C)oc5c4)c[nH]c3n2)c(OC)c1
[A] f

[Q] Report whether reported viability, T/C is lower than 30% (strictly) for Nc1ccccc1NC(=O)c1ccc(CNC(=O)OCc2cccnc2)cc1 + CNC(=O)c1ccc(Nc2nc(OC3CCCC3)c3c(-c4ccc5nc(C)oc5c4)c[nH]c3n2)c(OC)c1
[A] f
